Cited source: the supplement of paper PMC12632987

# system: T1, USP38, Q8NB14
# T1 chain: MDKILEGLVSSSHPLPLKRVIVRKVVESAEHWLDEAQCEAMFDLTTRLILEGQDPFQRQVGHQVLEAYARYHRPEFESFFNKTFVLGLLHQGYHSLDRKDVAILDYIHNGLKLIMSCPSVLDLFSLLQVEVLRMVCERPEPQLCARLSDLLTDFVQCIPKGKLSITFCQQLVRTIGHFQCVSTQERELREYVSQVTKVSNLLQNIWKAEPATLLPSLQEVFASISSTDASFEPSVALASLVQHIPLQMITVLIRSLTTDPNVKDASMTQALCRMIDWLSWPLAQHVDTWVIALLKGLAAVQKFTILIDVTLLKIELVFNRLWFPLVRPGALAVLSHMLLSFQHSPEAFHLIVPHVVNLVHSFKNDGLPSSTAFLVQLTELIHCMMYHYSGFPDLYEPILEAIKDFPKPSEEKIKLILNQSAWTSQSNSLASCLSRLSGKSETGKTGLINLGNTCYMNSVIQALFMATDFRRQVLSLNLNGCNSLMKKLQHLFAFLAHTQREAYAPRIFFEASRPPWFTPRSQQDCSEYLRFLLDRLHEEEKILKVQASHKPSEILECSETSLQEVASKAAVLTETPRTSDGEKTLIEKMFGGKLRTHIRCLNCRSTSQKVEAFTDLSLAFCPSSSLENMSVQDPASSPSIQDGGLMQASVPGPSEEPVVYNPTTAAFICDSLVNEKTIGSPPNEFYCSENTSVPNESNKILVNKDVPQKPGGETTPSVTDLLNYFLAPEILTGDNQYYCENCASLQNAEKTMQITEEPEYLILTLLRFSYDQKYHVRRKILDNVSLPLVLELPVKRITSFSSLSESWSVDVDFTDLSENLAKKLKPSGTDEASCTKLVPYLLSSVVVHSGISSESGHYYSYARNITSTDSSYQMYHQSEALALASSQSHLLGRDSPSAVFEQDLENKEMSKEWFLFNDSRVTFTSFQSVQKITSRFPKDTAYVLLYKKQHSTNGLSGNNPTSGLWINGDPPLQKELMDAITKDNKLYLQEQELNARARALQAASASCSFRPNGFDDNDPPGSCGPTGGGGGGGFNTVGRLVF
# experiment.notes: median log2 fold change of GCK-ALFA target abundance (FLAG IP / Myc IP barcode read proportion) (log2 ratio); each designed protein is fused to an ALFA-tag nanobody in HEK293 cells to bring the named protein to FLAG-tagged glucokinase (GCK); Myc marks an untargeted standard; higher = target protein stabilised (more abundant)
# condition.label: target protein: 3xFLAG-MCP-GCK-ALFA reporter; HEK293 landing pad (RPLP)
value.kind: median log2 fold change

usp_38_diff_out_18_14_346 (protein) DEELAKQLKEQFESLTKEVEENTKRLKEIVEKLKDDPESALSLLETRIQALEGVIKYAEEEKKRAKAAGFEELAAAAEKLIKAAKAAKEEAEKLKKELKA = -0.0584
usp_38_diff_out_18_14_257 (protein) SKELTEATISNLKSLKEDVKEDTERVIRLLEKNKDDPERVKRIYERAKRNLAGVEKYAKEVLKEAKENGDEELAKAAEELLKAVEEARERIEEEVKRVLA = 0.0724
usp_38_diff_out_18_14_352 (protein) EEELREQLLSNLRSLTEEVRRNTERLKRIVEKLRDDPESALALLETRRQALEGVIRYAREVLREARERGWEELAEAAEELIRAAEEALEEAKRLEEELKK = -0.239
usp_38_diff_out_4_12_561 (protein) SEEERKKIAEEALEEMEKKSKEVKEKAKKAKEEAIKTKDLAAFNKKMNELIKELTDLTLEKLEKLAEIGDDETIEEILRIAGETFKELSKLAKEVKEAAK = -0.892
usp_38_diff_out_13_133_57 (protein) SAAEERRAEARARLAETEAEVEKLLKEAKAALKAGDIDEAEKKVGEAAGLILEARSDLFALTRDDPELRREIRRRLKELEKELDKLIDEVVEARKKEFLA = 0.0932
usp_38_diff_out_18_14_315 (protein) SEELQEAELSSLKILKEDVVRDTERAIRLLEKSKDDPERVKRIYERRMRNLAGVREYAKEVLERAKKEGNEELLKAAEELLKTVDAAEERLEAKYKEVMA = 0.253
usp_38_diff_out_18_14_266 (protein) SEELDEALVKNLETLKKDVKENTERVIKLLRKNKDDPERVKRIYERAKRNLEGVKKYAEEVLKEAEKRGWKKTVKAAKELLKEVEEAKKKIEEEYKKVME = -0.521
